# Tested on: B6C3F1 mice, B16 melanoma ip, median survival T/C
# protocol: NCI In Vivo Anticancer Drug Screen. Data for tumor model B16 Melanoma (intraperitoneal) in B6C3F1 mice
# study_conditions: endpoint: median survival time; dose: 25.0 mg/kg/injection; schedule: Q01DX009 (ip); vehicle: distilled water + Tween-80
Inconclusive results and toxic doses are left out. Rule for the calls: active = survival T/C of 150% or more; inactive = T/C below 125% in these data.
Outcomes: Y for active, N for inactive

> print(dat)
                                   compound                             system.tested  class.assignment
1         OCc1c(CO)c(-c2ccc(Cl)cc2)n2c1CCC2  B6C3F1 mice, B16 melanoma ip, median survival T/C                 N
2  COC1C(CO)OC(n2c3c(Cl)cccc3c3c4c(c5c6cccc(Cl)c6[nH]c5c32)C(=O)NC4=O)C(O)C1O (stereo unspecified)  B6C3F1 mice, B16 melanoma ip, median survival T/C                 Y
3  Cc1cc(NCCCCCCCCNc2cc(C)nc3cc(N(C)C)ccc23)c2ccc(N(C)C)cc2n1  B6C3F1 mice, B16 melanoma ip, median survival T/C                 N
4  CNC(=O)OCc1c(COC(=O)NC)c(-c2ccc(Cl)c(Cl)c2)n2c1Cc1ccccc1C2  B6C3F1 mice, B16 melanoma ip, median survival T/C                 Y
5  Nc1ncnc2c1c1c(=O)[nH]c(=O)[nH]c1n2C1OC(CO)C(O)C1O (stereo unspecified)  B6C3F1 mice, B16 melanoma ip, median survival T/C                 N
6                  NC(=O)Oc1cccc(OC(N)=O)c1  B6C3F1 mice, B16 melanoma ip, median survival T/C                 N

* * *

# System: B6C3F1 mice, B16 melanoma ip, median survival T/C
# protocol: NCI In Vivo Anticancer Drug Screen. Data for tumor model B16 Melanoma (intraperitoneal) in B6C3F1 mice
# study_conditions: endpoint: median survival time; dose: 50.0 mg/kg/injection; schedule: Q01DX009 (ip); vehicle: Klucel (hydroxypropylcellulose) (HPC); higher = longer survival
Inconclusive results and toxic doses are left out. Where a SMILES comes first, the peptide text is derived from it. The star is where a group is joined. Cbz = O=C(OCc1ccccc1)*; Bn = c1ccc(C*)cc1

compound	T/C
O=C1CCCCCC2=NC12 (stereo unspecified)	98 % of control
CC(NC(=O)OCc1ccccc1)C(=O)NC(CC(N)=O)C(=O)O (stereo not drawn) (Cbz-Ala-Asn-OH; configuration not given here)	98 % of control
C[Si](C)(C)OSc1ccccc1[N+](=O)[O-]	113 % of control
CCOC(=O)CNC(=O)Sc1ccc(C(C)(C)C)cc1	102 % of control
O=C(NC(CSSCC(NC(=O)OCc1ccccc1)C(=O)O)C(=O)O)OCc1ccccc1 (stereo unspecified)	94 % of control
O=C1CC2(C(=O)N1CN1CCCCC1)c1ccccc1-c1ccccc12	95 % of control
Cn1c2ccccc2c(=O)c2c(O)cc3c(c21)C=CC(C)(C)O3	89 % of control
CCCCC(NC(=O)C(C)N)C(=O)O (stereo unspecified)	102 % of control
CC(C)CC(NC(=O)C(CSCc1ccccc1)NC(=O)OCc1ccccc1)C(N)=O (stereo unspecified) (Cbz-Cys(Bn)-Leu-NH2; configuration not given here)	100 % of control
O=C1C=C(Nc2ccccc2)c2ccccc2C1=O	96 % of control
O=c1[nH]cnc2n[nH]nc12	92 % of control
Cc1cc(C)c(-c2cc(O)c(C)cc2O)c(C)c1	103 % of control
CC(=O)[O][Pb]([O]C(C)=O)([c]1ccccc1)[c]1ccccc1	93 % of control
O=c1nc(-c2ccco2)sc(=O)[nH]1	99 % of control
CCCC(NC(=O)OCc1ccccc1)C(=O)NC(C)C(=O)O (stereo unspecified)	104 % of control
COC(=O)C(Cc1ccc(O)cc1)NC(=O)C(Cc1ccccc1)NC(C)=O (stereo not drawn) (Ac-Phe-Tyr-OMe; configuration not given here)	92 % of control
